# Tested on: 168753-222-R-J1-PDC complex spheroid viability;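 further: luminescence signal used as surrogate for viable cell amount; viability measured after seven days of drug exposure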
# assay overview: Anticancer human tumor 168753-222-R-J1-PDC patient-derived bladder carcinoma cell line growth inhibition [CLK]
# condition context: second compound 0.316 µM; first compound 10 µM; hits give low values
Rule: viability, T/C below 7% gives y, anything at or above gives n.

Is 7% strictly greater than the compound's reported viability, T/C? compound: Nc1ccccc1NC(=O)c1ccc(CNC(=O)OCc2cccnc2)cc1 + CNC(=O)c1ccc(Nc2nc(OC3CCCC3)c3c(-c4ccc5nc(C)oc5c4)c[nH]c3n2)c(OC)c1 y

Lab note: viability, T/C threshold 7%. Does this compound come in strictly under it? C=CC(=O)N1CCN(c2nc(=O)n(-c3c(C)ccnc3C(C)C)c3nc(-c4c(O)cccc4F)c(F)cc23)C(C)C1 (stereo unspecified) + CNC(=O)c1ccc(Nc2nc(OC3CCCC3)c3c(-c4ccc5nc(C)oc5c4)c[nH]c3n2)c(OC)c1 n

Determine whether this compound shows viability, T/C lower than 7% (ties excluded): CCCS(=O)(=O)Nc1ccc(F)c(C(=O)c2c[nH]c3ncc(-c4ccc(Cl)cc4)cc23)c1F + CN1CCN(c2cc(C(=O)Nc3cc4cc(-c5cnn(C)c5)ccc4cn3)ccn2)CC1 n

Lab log: compare recorded viability, T/C with 7%; is it strictly lower for CC(CO)NC(=O)c1cc(-c2ccc(Cl)cc2)nn(-c2cnn(C)c2)c1=O (stereo unspecified) + CNC(=O)c1ccc(Nc2nc(OC3CCCC3)c3c(-c4ccc5nc(C)oc5c4)c[nH]c3n2)c(OC)c1 ? n

Find out if reported viability, T/C for C=C(F)C(=O)N1CCN(c2nc(OCC3CCCN3C)nc3c2CCN(c2cccc4cccc(Cl)c24)C3)CC1CC#N (stereo unspecified) + CNC(=O)c1ccc(Nc2nc(OC3CCCC3)c3c(-c4ccc5nc(C)oc5c4)c[nH]c3n2)c(OC)c1 is less than 7% n

Please check: viability, T/C for C=CC(=O)N1CCN(c2nc(=O)n(-c3c(C)ccnc3C(C)C)c3nc(-c4c(O)cccc4F)c(F)cc23)C(C)C1 (stereo unspecified) + CN1CCN(c2cc(C(=O)Nc3cc4cc(-c5cnn(C)c5)ccc4cn3)ccn2)CC1 , strictly under 7% or not? n

Strictly below 7% in viability, T/C? CC1COCCN1c1cc(C2(S(C)(=N)=O)CC2)nc(-c2ccnc3[nH]ccc23)n1 (stereo unspecified) + CN1CCN(c2cc(C(=O)Nc3cc4cc(-c5cnn(C)c5)ccc4cn3)ccn2)CC1 y

API: query returns whether the compound falls strictly under 7% in viability, T/C. Query: O=C(c1cc(Cc2n[nH]c(=O)c3ccccc23)ccc1F)N1CCN(C(=O)C2CC2)CC1 + CN1CCN(c2cc(C(=O)Nc3cc4cc(-c5cnn(C)c5)ccc4cn3)ccn2)CC1 n

Does this compound meet the criterion viability, T/C < 7%? CC(Nc1ccc2c(c1)OCCn1cc(N3C(=O)OCC3C(F)F)nc1-2)C(N)=O (stereo unspecified) + CN1CCN(c2cc(C(=O)Nc3cc4cc(-c5cnn(C)c5)ccc4cn3)ccn2)CC1 y

hey, is viability, T/C for CC(Nc1ccc2c(c1)OCCn1cc(N3C(=O)OCC3C(F)F)nc1-2)C(N)=O (stereo unspecified) + CNC(=O)c1ccc(Nc2nc(OC3CCCC3)c3c(-c4ccc5nc(C)oc5c4)c[nH]c3n2)c(OC)c1 lower than 7% or not? n

State whether 7% exceeds viability, T/C recorded for COc1cccc2c1C(=O)c1c(O)c3c(c(O)c1C2=O)CC(O)(C(=O)CO)CC3OC1CC(N)C(O)C(C)O1 (stereo unspecified) + CNC(=O)c1ccc(Nc2nc(OC3CCCC3)c3c(-c4ccc5nc(C)oc5c4)c[nH]c3n2)c(OC)c1 . y

Report whether reported viability, T/C is lower than 7% (strictly) for CC(=O)O[C@H]1C(=O)[C@@]2(C)[C@H]([C@H](OC(=O)c3ccccc3)[C@]3(O)C[C@H](OC(=O)[C@H](O)[C@@H](NC(=O)c4ccccc4)c4ccccc4)C(C)=C1C3(C)C)[C@]1(OC(C)=O)CO[C@@H]1C[C@@H]2O + CN1CCN(c2cc(C(=O)Nc3cc4cc(-c5cnn(C)c5)ccc4cn3)ccn2)CC1 n

I'd appreciate it if you could check whether CCCS(=O)(=O)Nc1ccc(F)c(C(=O)c2c[nH]c3ncc(-c4ccc(Cl)cc4)cc23)c1F + CNC(=O)c1ccc(Nc2nc(OC3CCCC3)c3c(-c4ccc5nc(C)oc5c4)c[nH]c3n2)c(OC)c1 has viability, T/C smaller than 7%. n

Answer whether the compound C#Cc1c(F)ccc2cc(O)cc(-c3ncc4c(N5CC6CCC(C5)N6)nc(OCC56CCCN5CC(F)C6)nc4c3F)c12 (stereo unspecified) + CN1CCN(c2cc(C(=O)Nc3cc4cc(-c5cnn(C)c5)ccc4cn3)ccn2)CC1 has viability, T/C strictly less than 7% n

Is viability, T/C strictly under 7% for the entry COC1C=CCC(C)C(C)S(=O)(=O)NC(=O)c2ccc3c(c2)N(CC2CCC21)CC1(CCCc2cc(Cl)ccc21)CO3 (stereo unspecified) + CN1CCN(c2cc(C(=O)Nc3cc4cc(-c5cnn(C)c5)ccc4cn3)ccn2)CC1 ? y
